Tested on: CHIKV DRDE-07
Assay: In vitro screening against CHIKV (CPE inhibition and MTT cell viability)
Format: cell-based, chikungunya virus
Details: CHIKV-infected Vero cells treated at MNTD, 72 hpi, MTT; cell control + DMSO = 100%
Decide using Cell Viability: a value greater than or equal to 60% is T, a smaller one is F.

Nc1nc(N)c2cc(F)c(F)cc2n1 = F
Nc1nc(N)c2ccc(F)cc2n1 = F
Brc1cc2c(c3ncccc13)Oc1ncccc1O2 = T

Request: Could you verify whether the entry Brc1cc2c(c3ncccc13)Oc1cc(Br)c3cccnc3c1O2 shows Cell Viability of no less than 60%?
Result: T

Request: Evaluate Clc1ncccc1Oc1cc2c(c3ncccc13)Oc1ncccc1O2 : Cell Viability at minimum 60%?
Result: T

Request: hey, is Cell Viability for this one >= 60%? COc1cccc2nc(N)nc(N)c12
Result: F

Request: Answer whether Cell Viability of Nc1nc(N)c2ccccc2n1 is greater than or equal to 60%.
Result: T

====

System: Vero cells
Test: Cytotoxicity MTT assay in Vero cells (MNTD, CC50)
Format: cell-based, African green monkey
Settings: maximum nontoxic dose in Vero cells, MTT
assay_readout: MNTD (µM)
The reply should be a number in µM, with the unit left off.

These solved cases illustrate the format of a correct answer.
Nc1nc(N)c2c(F)cccc2n1 [DCR 135, 5-fluoro-quinazoline-2,4-diamine] = 250
Nc1nc(N)c2ccc(F)cc2n1 [DCR 136, 7-fluoro-quinazoline-2,4-diamine] = 250
Clc1ncccc1Oc1cc2c(c3ncccc13)Oc1ncccc1O2 [DCR 3] = 50
COc1cccc2nc(N)nc(N)c12 [DCR 139, 5-methoxy-quinazoline-2,4-diamine] = 250
Brc1cc2c(c3ncccc13)Oc1cc(Br)c3cccnc3c1O2 [DCR 2] = 50
Nc1nc(N)c2cc(F)ccc2n1 [DCR 137, 6-fluoro-quinazoline-2,4-diamine] = 300
Brc1cc2c(c3ncccc13)Oc1ncccc1O2 [DCR 1] = 50
Nc1nc(N)c2cc(F)c(F)cc2n1 [DCR 138, 6,7-difluoro-quinazoline-2,4-diamine] = 250

Query compound follows.
Request: Data request, read-out MNTD, for Nc1nc(N)c2ccccc2n1 [DCR 134, Quinazoline-2,4-diamine]
Result: 150

====

Test system: Vero cells
Experiment: Cytotoxicity MTT assay in Vero cells (MNTD, CC50)
Assay type: cell-based, African green monkey
Settings: Table S1; Vero cells
Overview of recorded MNTD for various molecules
Write down the numeric answer in µM and omit the unit.

O=C(N/N=C/c1cccc([N+](=O)[O-])c1)c1ccncc1 = 62.5
C/C(=N\NC(=O)c1cccnc1)c1ccccc1N = 31.25
CCOc1cc(/C=N/NC(=O)c2cccnc2)ccc1O = 31.25
O=C(NNC(=O)c1ccccc1Cl)c1ccncc1 [DCR10, N'-(2-chlorobenzoyl)isonicotinohydrazide] = 31.25
C/C(=N\NC(=O)c1ccncc1)c1ccc(O)cc1 = 62.5
COc1ccc(/C(=N\NC(=O)c2ccncc2)c2ccccc2)cc1 = 31.25

Request: Could you share which MNTD value was measured for O=C(N/N=C/c1ccc(Cl)cc1)c1cccnc1 ?
Result: 62.5

Request: MNTD lookup needed for C#CCOC(=O)C1=C(C)NC(=O)NC1c1ccc(CC)cc1 (stereo not shown) , thanks.
Result: 104.58

Request: Give its MNTD value. Item: COc1ccc(C2NC(=O)NC(C)=C2C(=O)OCC[N+](C)(C)C)cc1 (stereo not shown)
Result: 62.5

Request: Request the reported MNTD associated with COc1ccc(C2NC(=O)NC(C)=C2C(=O)OCc2ccc(Cl)cc2)cc1 (stereo not shown)
Result: 323.15

Request: What MNTD value was documented for this molecule, C/C(=N\NC(=O)c1ccncc1)c1ccccc1N ?
Result: 62.5

Request: Recorded MNTD for Cc1ccc(/C=N/NC(=O)c2ccncc2)cc1 , please?
Result: 62.5

Request: Please look up its MNTD: Nc1nc(N)c2ccc(F)cc2n1
Result: 250

Request: Sample O=C(N/N=C/c1ccco1)c1ccncc1 — what was its MNTD?
Result: 62.5

Request: Record request: MNTD value, item CC1=C(C(=O)OCC[N+](C)(C)C)C(c2ccc(C)cc2)NC(=O)N1 (stereo not shown)
Result: 125

Request: So what does the record say about MNTD for O=C(NNC(=O)c1cccnc1)c1ccccc1 [DCR4, N'-benzoylnicotinohydrazide] ?
Result: 31.25

Request: # query: MNTD of entry Cc1ccc(C2NC(=O)Oc3ccc4ccccc4c32)cc1 (stereo not shown)
Result: 54

====

Tested on: CHIKV DRDE-07
Assay: In vitro screening against CHIKV (CPE inhibition and MTT cell viability)
Assay type: cell-based, chikungunya virus
Details: Table S1; 72 hpi, MTT assay, CHIKV-infected Vero cells
So basically: is % Cell viability under 10%? Then true (1). Not under? Then false (0).

Request: Just wondering, is % Cell viability of CC(=O)Cc1noc(-c2cc(Cl)ccc2Cl)n1 [DCR83] below 10%?
Result: false (0)

Request: Given C#CCOC(=O)C1=C(C)NC(=O)NC1c1ccc(OCC)cc1 (centres unmarked) [DCR94] , is recorded % Cell viability strictly lower than 10%?
Result: false (0)

Request: Hi there! Is % Cell viability for C#CCOC(=O)C1=C(C)NC(=O)NC1c1ccc(F)cc1 (centres unmarked) [DCR90] below 10%, do you know?
Result: false (0)

Request: Please let me know if COc1cccc(N2CCCCC2)c1C#N [DCR143, 2-Methoxy-6-piperidin-1-yl-benzonitrile] shows % Cell viability below 10%.
Result: false (0)

Request: Lab note: % Cell viability threshold 10%. Does this compound come in strictly under it? CCOc1ccc(/C=N/NC(=O)c2ccncc2)cc1OC [DCR32]
Result: true (1)

Request: Record O=C(N/N=C/c1ccccc1)c1cccnc1 [DCR14, (E)-N'-benzylidenenicotinohydrazide] : is its % Cell viability strictly below 10%?
Result: false (0)

Request: is_below(% Cell viability, 10%) for O=C(N/N=C/c1cccc([N+](=O)[O-])c1)c1ccncc1 [DCR34] ?
Result: true (1)

Request: Record O=C1NC(c2ccc(F)cc2)c2c(ccc3ccccc23)O1 (centres unmarked) [DCR65] : is its % Cell viability strictly below 10%?
Result: false (0)

Request: Item Cc1ccc(C2NC(=O)Oc3ccc4ccccc4c32)cc1 (centres unmarked) [DCR66] : % Cell viability beneath 10%, strictly?
Result: false (0)

Request: Threshold test, % Cell viability < 10%: CC1=C(C(=O)OCC[N+](C)(C)C)C(c2ccc([N+](=O)[O-])cc2)NC(=O)N1 (centres unmarked) [DCR104]
Result: true (1)

Request: Hello, is % Cell viability of the following compound strictly smaller than 10%? O=C1NC(c2cccc(Cl)c2)c2c(ccc3ccccc23)O1 (centres unmarked) [DCR68]
Result: false (0)

Request: Given COc1ccc(C2NC(=O)NC(C)=C2C(=O)OCC[N+](C)(C)C)cc1 (centres unmarked) [DCR107] , is recorded % Cell viability strictly lower than 10%?
Result: false (0)

Request: Consider the compound COc1ccc(/C(=N\NC(=O)c2ccncc2)c2ccccc2)cc1 [DCR53] . Is its % Cell viability strictly less than 10%?
Result: false (0)

Request: Would you kindly verify if % Cell viability of CCOc1cc(-c2cc(-c3ccc(O)cc3)nn2C(=O)c2cccnc2)ccc1O [DCR59] is strictly less than 10%?
Result: false (0)

Request: Given the entry COc1cc(-c2cc(-c3ccc(O)cc3)nn2C(=O)c2cccnc2)cc(OC)c1OC [DCR60] , would its reported % Cell viability be below 10%?
Result: true (1)

Request: Check if % Cell viability falls below 10% for CC1=C(C(=O)OCCN(C)C)C(c2ccc(Cl)cc2)NC(=O)N1 (centres unmarked) [DCR108] .
Result: false (0)

Request: Please let me know if CC(=O)Cc1noc(-c2cccc([N+](=O)[O-])c2)n1 [DCR81] shows % Cell viability below 10%.
Result: true (1)

Request: Bench note: check whether C#CCOC(=O)C1=C(C)NC(=O)NC1c1ccc([N+](=O)[O-])cc1 (centres unmarked) [DCR93] shows % Cell viability below 10%
Result: false (0)

Request: Hello, is % Cell viability of the following compound strictly smaller than 10%? Fc1cccc(C2c3c(ccc4ccccc34)Oc3ccc4ccccc4c32)c1 [DCR119]
Result: false (0)

Request: Criterion: % Cell viability strictly below 10%. Is it met by CC(=O)NNC(=O)c1cccnc1 [DCR7, N'-acetylnicotinohydrazide] ?
Result: false (0)

Request: Given CC1(C)CC(=O)C2=C(C1)OC1=C(C(=O)CC(C)(C)C1)C2c1cccc([N+](=O)[O-])c1 [DCR129] , is recorded % Cell viability strictly lower than 10%?
Result: false (0)

Request: Strictly below 10%: is that where % Cell viability of COc1ccc(C2NC(=O)NC(C)=C2C(=O)OCc2ccc(Cl)cc2)cc1 (centres unmarked) [DCR100] sits?
Result: false (0)
